- protocol-notes: chemical genetic growth profiling, strain panel (AID 1159580);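 also: tested at 20 µM; growth read once vehicle control cultures reached saturation at 30 °C; 1 = growth at the plate median or of vehicle wells; lower values mean less growth of the strain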
- reported-conditions: S. cerevisiae deletion strains, growth OD, locus YDR388W, active compounds read low
About 2,000 (36%) of roughly 5,500 compounds were called active. Inconclusive results (about 18%) are left out. The list shows a part of the results.
readout-type: normalized growth
Respond using a number only.

Exam item: Fill in the blank: the reported normalized growth of NCCCN is ____.
Marked response: 0.993

Exam item: Which normalized growth value is on record for CC(=O)N1CCCC1C(=O)O (centres undefined) ?
Marked response: 1.02

Exam item: Look at this compound and give its reported normalized growth. CSCCC(N)C(=O)NC(CC(C)C)C(=O)NC(Cc1ccccc1)C(=O)O (centres undefined)
Marked response: 0.995

Exam item: Form field: reported normalized growth of COC(=O)C[C@H]1C(C)(C)[C@@H](O)[C@@H]2CC3=C4CC(O)O[C@@H](c5ccoc5)[C@]4(C)CCC3[C@@]1(C)C2=O (some centres undefined)
Marked response: 0.984

====

- protocol-notes: chemical genetic growth profiling, strain panel (AID 1159580);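 also: tested at 20 µM; growth read once vehicle control cultures reached saturation at 30 °C; 1 = growth at the plate median or of vehicle wells; lower values mean less growth of the strain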
- reported-conditions: S. cerevisiae deletion strains, growth OD, locus YLR039C, strain RIC1
The campaign covered roughly 5,500 compounds. About 2,000 (36%) were called active. Inconclusive results (about 18%) are left out. Cut-off read from the data, not from the text of the source: active = normalized growth mostly below about 0.91 (no sharp cut-off); inconclusive = no clear call, values can overlap the other calls; inactive = mostly above about 0.92. The list shows a part of the results.
In this exercise, the only acceptable responses are active, inactive

Illustrative cases are given below, each with its answer.
compound: CC1(C)Oc2ccc3ccc(=O)oc3c2CC1O (stereo not given)
label: inactive
--
compound: CC(=O)O[C@@H]1c2c(ccc3ccc(=O)oc23)OC(C)(C)[C@@H]1OC(=O)CC(C)C
label: inactive
--
compound: O=C(CCCN1CCC(O)(c2ccc(Cl)cc2)CC1)c1ccc(F)cc1
label: active
--
compound: O=C(O)c1cc(O)ccc1O
label: inactive

Then this compound:
Exam item: In this assay, the call recorded for CSCCC(N)C(=O)NC(CC(C)C)C(=O)NC(Cc1ccccc1)C(=O)O (stereo not given) was what?
Marked response: inactive

====

- protocol-notes: chemical genetic growth profiling, strain panel (AID 1159580);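 also: tested at 20 µM; growth read once vehicle control cultures reached saturation at 30 °C; 1 = growth at the plate median or of vehicle wells; lower values mean less growth of the strain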
- reported-conditions: S. cerevisiae deletion strains, growth OD, locus YLR133W, strain CKI1
Out of some 5,500 compounds screened, about 2,000 (36%) were called active. Another 18% or so got no clear call; they are omitted. Rule as the data show it: active = normalized growth mostly below about 0.91 (no sharp cut-off); inconclusive = no clear call, values can overlap the other calls; inactive = mostly above about 0.92. The list shows a part of the results.
Please answer using one outcome listed in active, inactive

Look over these answered cases.
smiles-notation: O=C(Nc1cc2ccccc2s1)N1CCN(Cc2c(F)cccc2Cl)CC1
label: inactive

smiles-notation: CN(C)/C=C1\CSc2ccc(Cl)cc2C1=O
label: inactive

smiles-notation: O=C1Nc2ccccc2/C1=C\c1c[nH]c2ccccc12
label: active

Turning now to a further compound:
Exam item: For CCOC(=O)NC(=S)Nc1ccc(C(C)(C)C)cc1NC(=S)NC(=O)OCC , which call appears in the assay record?
Marked response: inactive

====

- protocol-notes: chemical genetic growth profiling, strain panel (AID 1159580);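 also: tested at 20 µM; growth read once vehicle control cultures reached saturation at 30 °C; 1 = growth at the plate median or of vehicle wells; lower values mean less growth of the strain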
- reported-conditions: S. cerevisiae deletion strains, growth OD, locus YDR502C, strain sam2, active compounds read low
Screen size: about 5,500 compounds; about 2,000 (36%) were called active. Inconclusive results (about 18%) are left out. The list shows a part of the results.
readout-type: normalized growth
Kindly provide the number alone.

Exam item: Query: normalized growth; subject: COC(=O)NC(=S)Nc1ccccc1NC(=S)NC(=O)OC
Marked response: 0.993

Exam item: Looking for the measured normalized growth of NCC(O)CC(=O)O (stereo not drawn) , can you help?
Marked response: 0.991

Exam item: Returns the measured normalized growth for the input compound. Input: CC1(C)[C@@H]2CC[C@@]1(C)C(=O)C2
Marked response: 0.995

Exam item: Given the entry O=C(Oc1ccccc1C(=O)O)c1ccccc1O , report its measured normalized growth.
Marked response: 0.996

Exam item: Any idea what its normalized growth is? The compound is O=C(O)c1cc(O)ccc1O
Marked response: 0.989
